Entry source: patent US20220030868A1

system: Phakopsora pachyrhizi; assay: Test A: test suspension sprayed on soybean seedlings one day before inoculation with Phakopsora pachyrhizi spores (Asian soybean rust), visual disease rating; format: in vivo; conditions: 10 ppm test suspension, 100 = 100% disease control, 0 = no control
Mark met only when Test A rating (disease control) stays strictly below 50%. Values equal to the cut-off are not met.

Recorded results for 10 compounds are shown here.
>>> category("C=C(C)COC(=O)c1cnn(Cc2ccc(OCC(O)(O)C(F)(F)F)cc2)c1")
"not met"
>>> category("FC(F)(F)C1(COc2ccc(CNC(=S)NC3CCCCC3)cc2)OCCO1")
"met"
>>> category("CCO/C(=C\\Oc1ccc(CN2CCC(C(=O)OC)CC2)cc1)C(F)(F)F")
"not met"
>>> category("CCCNC(=O)c1ccc(O/C=C(\\OCC)C(F)(F)F)cc1")
"met"
>>> category("CCO/C(=C\\Oc1ccc(CSC#N)cc1)C(F)(F)F")
"met"
>>> category("CCO/C(=C\\Oc1ccc(Cn2ccc(C(=O)OCC(C)C)n2)cc1)C(F)(F)F")
"not met"
>>> category("CCNC(=O)c1cnn(Cc2cccc(C/C=C(\\OCC)C(F)(F)F)c2)c1")
"met"
>>> category("COC(=O)c1cnn(Cc2ccc(OCC3(C(F)(F)F)OCCO3)cc2)c1")
"not met"
>>> category("CCO/C(=C\\Oc1ccc(Cc2nc(C(=O)NCC3CC3)cs2)cc1)C(F)(F)F")
"not met"
>>> category("C#CCO/C(=C\\Oc1ccc(Cn2cc(C(=O)OCC)cn2)cc1)C(F)(F)F")
"met"

# strict comparison: is reported Test A rating (disease control) < 50%? input = `CCO/C(=C\Oc1ccc(Cn2ccc(C(=O)OC)n2)cc1)C(F)(F)F`
not met

Here's an entry: `O=C(OCC(F)(F)C(F)(F)F)c1cnn(Cc2ccc(OCC(O)(O)C(F)(F)F)cc2)c1` . Is its Test A rating (disease control) below 50%?
not met

Confirm or reject: Test A rating (disease control) of `FC(F)(F)C1(COc2ccc(Cc3ccccc3)cc2)OCCO1` lies strictly below 50%
met

Test A rating (disease control) under 50%? Item: `CON(Cc1ccc(OCC2(C(F)(F)F)OCCO2)cc1)C(=O)C(C)C`
not met
